Test: Apparent permeability from apical to basolateral side of MDCK cells
Format: ADME, cell-based, Canis lupus familiaris
Conditions: dog
parameter.measured: Papp A→B (×10⁻⁶ cm/s)

# smiles.representation, obs.value
measured = [
    ("Cc1nc(C)c(-c2ccc(-c3ccc(CC(=O)O)cc3Cl)cc2)nc1C(N)=O", 8.9),
    ("Cc1nc(C)c(-c2ccc(-c3ccc([C@H](C)C(=O)O)cc3Cl)c(F)c2)nc1C(N)=O", 14),
    ("Cc1nc(C)c(-c2ccc(-c3ccc([C@H](C)C(=O)O)cc3Cl)cc2)nc1C(N)=O", 19),
]

###

Test: Solubility of the compound in crystalline form
Format: physicochemical

# smiles.representation, solubility
measured = [
    ("Cc1nc(C)c(-c2ccc(-c3ccc([C@@H](C)C(=O)O)cc3)cc2)nc1C(N)=O", "> 1300 µM"),
    ("Cc1cc(-c2nc(C(N)=O)c(C)nc2C)ccc1-c1ccc(CC(=O)O)cc1", "> 1200 µM"),
    ("Cc1cc(CC(=O)O)ccc1-c1ccc(-c2nc(C(N)=O)c(C)nc2C)cc1", "> 440 µM"),
    ("Cc1nc(C)c(-c2ccc(-c3ccc([C@H](C)C(=O)O)cc3)cc2)nc1C(N)=O", "> 1300 µM"),
]

###

Measured logD, listed per entry for reference.
Experiment: Lipophilicity, log D of the compound at pH 7.4
Format: physicochemical
Details: buffer
parameter.measured: logD

# smiles.representation, parameter.measured, obs.value
measured = [
    ("Cc1nc(C)c(-c2ccc(-c3ccc(CC(=O)O)cc3)c(F)c2)nc1C(N)=O", "logD", 0.3),
    ("Cc1nc(C)c(-c2ccc(-c3ccc(CC(=O)O)cc3)cc2)nc1C(N)=O", "logD", 0.3),
    ("Cc1nc(C)c(-c2ccc(-c3ccc(CC(=O)O)cc3F)cc2)nc1C(N)=O", "logD", 0.1),
    ("Cc1nc(C)c(-c2ccc(-c3ccc(CC(=O)O)cc3)c(C#N)c2)nc1C(N)=O", "logD", -0.4),
    ("Cc1nc(C)c(-c2ccc(-c3ccc(CC(=O)O)c(Cl)c3)cc2)nc1C(N)=O", "logD", 0.3),
    ("Cc1nc(C)c(-c2ccc(-c3ccc(CC(=O)O)cc3)c(Cl)c2)nc1C(N)=O", "logD", 0.6),
    ("Cc1nc(C)c(-c2ccc(-c3ccc(CC(=O)O)cc3Cl)cc2)nc1C(N)=O", "logD", 0.5),
    ("Cc1nc(C)c(-c2ccc(-c3ccc([C@H](C)C(=O)O)cc3Cl)cc2)nc1C(N)=O", "logD", 1.1),
    ("Cc1nc(C)c(-c2ccc(-c3ccc([C@H](C)C(=O)O)cc3Cl)c(F)c2)nc1C(N)=O", "logD", 1),
]
